Target: Human PDE4D (Homo sapiens (Human))
Sequence (Q08499 186-808): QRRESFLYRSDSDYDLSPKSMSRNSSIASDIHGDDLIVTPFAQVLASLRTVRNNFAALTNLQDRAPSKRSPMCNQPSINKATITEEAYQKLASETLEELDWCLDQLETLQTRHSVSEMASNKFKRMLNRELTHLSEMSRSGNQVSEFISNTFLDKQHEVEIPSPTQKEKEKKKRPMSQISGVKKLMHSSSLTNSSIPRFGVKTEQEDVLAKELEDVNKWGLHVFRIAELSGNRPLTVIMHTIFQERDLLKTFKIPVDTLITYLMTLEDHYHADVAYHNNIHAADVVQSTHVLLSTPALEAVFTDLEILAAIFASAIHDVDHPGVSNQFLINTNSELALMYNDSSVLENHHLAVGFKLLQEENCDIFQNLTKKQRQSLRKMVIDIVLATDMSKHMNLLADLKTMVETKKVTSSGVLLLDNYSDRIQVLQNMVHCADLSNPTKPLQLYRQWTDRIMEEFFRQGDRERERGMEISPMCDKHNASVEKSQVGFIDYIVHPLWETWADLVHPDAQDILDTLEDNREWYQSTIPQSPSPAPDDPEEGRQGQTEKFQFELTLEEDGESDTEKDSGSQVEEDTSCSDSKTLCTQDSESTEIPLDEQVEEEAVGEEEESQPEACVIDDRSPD
Test: PDE4D Scintillation Proximity Assay (SPA), inhibition of enzyme activity
Assay type: biochemical
Details: human recombinant enzyme, 1 μM cAMP substrate, 30 min at 25° C., geometric mean of 2-9 determinations unless otherwise indicated, read-out: Human PDE4D FL
Entry class follows IC50: I: < 0.8 µM; II: ≥ 0.8 µM and < 4 µM; III: ≥ 4 µM

1) CNC(=O)c1nc2cccnn2c1-c1cc(F)c(Cl)cc1C	III
2) O=C(NC1CC1)c1nc2cccnn2c1-c1ccnc(OC(F)F)c1	I
3) O=C(N[C@@H]1C[C@@H]1F)c1nc2cccnn2c1-c1ccc(Cl)cc1	II
4) CC1(NC(=O)c2nc3cccnn3c2-c2ccc(Cl)cc2)CC1	II
5) O=C(c1nc2cccnn2c1-c1ccc2ncoc2c1)N1CCC1	III
6) O=C(NC1CC1)c1nc2cccnn2c1-c1ccc2ccnn2c1	II
7) Cc1cc2ncnn2cc1-c1c(C(=O)NC2CC2)nc2cccnn12	III
8) O=C(NC1CC1)c1nc2cccnn2c1-c1cccc(Cl)c1	I
9) Cc1cc(-c2c(C(=O)N3CCC3)nc3cccnn23)cc(C)c1F	II
10) O=C(NC1CC1)c1nc2cccnn2c1-c1ccc(Cl)c(F)c1	I
11) CCCNC(=O)c1nc2cccnn2c1-c1ccc(Cl)c(F)c1	I
12) O=C(NC1CC1(F)F)c1nc2cccnn2c1-c1ccc(Cl)c(F)c1 (stereo not drawn)	I
13) O=C(NC1CC1)c1nc2cccnn2c1-c1ccc2ocnc2c1	II
14) Cc1ccc(-c2c(C(=O)N[C@@H]3C[C@@H]3F)nc3cccnn23)cc1Cl	I
15) O=C(c1nc2cccnn2c1-c1ccc2c(c1)CCO2)N1CCC1	II
16) Cc1cc(Cl)ccc1-c1c(C(=O)NC2CC2)nc2cccnn12	III
17) O=C(Nc1ncccn1)c1nc2cccnn2c1-c1ccc(Cl)cc1	III
18) O=C(c1nc2cccnn2c1-c1ccc(Cl)cc1Cl)N1CCC1	II
19) N#Cc1ccc(-c2c(C(=O)NC3CC3)nc3cccnn23)c(F)c1	III
20) CCNC(=O)c1nc2cccnn2c1-c1ccc(Cl)cc1	III
21) O=C(c1nc2cccnn2c1-c1cc(F)c(Cl)c(F)c1)N1CCC1	I
22) O=C(c1nc2cccnn2c1-c1ccnc(C(F)(F)F)c1)N1CCC1	III
23) CC(C)NC(=O)c1nc2cccnn2c1-c1cc(F)c(Cl)cc1F	I
24) N#Cc1ccc(-c2c(C(=O)NC3CC3)nc3cccnn23)cc1F	II
25) COc1ccc(-c2c(C(=O)N3CCC3)nc3cccnn23)cc1F	III
26) Cc1ccc(Cl)cc1-c1c(C(=O)N2CCC2)nc2cccnn12	II
27) O=C(c1nc2cccnn2c1-c1ccc(Cl)c(F)c1)N1CCC1	I
28) CCCNC(=O)c1nc2cccnn2c1-c1ccc(Cl)cc1	II
29) O=C(NCC1CC1)c1nc2cccnn2c1-c1ccc(Cl)cc1	III
30) O=C(c1nc2cccnn2c1-c1ccc2ccnn2c1)N1CCC1	III
31) CCNC(=O)c1nc2cccnn2c1-c1cc(F)c(C#N)cc1C	II
32) CN(C(=O)c1nc2cccnn2c1-c1ccc(Cl)cc1)C1CC1	III
33) Cc1ccc(-c2c(C(=O)N[C@@H]3C[C@@H]3F)nc3cccnn23)c(F)c1	III
34) Cc1cc(-c2c(C(=O)N3CCC3)nc3cccnn23)c(F)cc1C#N	III
35) O=C(c1nc2cccnn2c1-c1ccc2ncnn2c1)N1CCC1	III
36) O=C(c1nc2cccnn2c1-c1ccnc(OC(F)F)c1)N1CCC1	I
